assay-notes: In vivo pharmacokinetics in CD-1 mice
run-parameters: male, CD-1, mouse, plasma, ip, 20 mg/kg, intraperitoneal 20 mg/kg, 5% DMSO: 95% neobee
parameter: Cmax (ng/mL)
I only need the number, in ng/mL, no unit after it.

smiles-code: CCC#CCNC1=CC(=O)c2ccccc2C1=O
parameter: Cmax
unit-name: ng/mL
quantitative-result: 147

// next entry
I would be grateful if you could share the reported Cmax for `CC(C)CCNC1=CC(=O)c2ccccc2C1=O` .
320

---

assay-notes: In vivo pharmacokinetics in CD-1 mice
Set-up: species or system mouse
run-parameters: male, CD-1, mouse, plasma, iv, 5 mg/kg; 3 and 25 at 5 mg/kg
parameter: MRT inf (h)
Hi! Could you send only the number? It should be in h, unit omitted.

smiles-code: CC(C)CCOC1=CC(=O)c2ccccc2C1=O
unit-name: h
quantitative-result: 3.2

Next item in the queue.
Query (molecule): `CCC#CCNC1=CC(=O)c2ccccc2C1=O` ; field requested: MRT inf
4.28
